Reference for the values: patent US20050009840A1

- TARGET_SYSTEM: Met kinase domain (GST fusion protein) (Homo sapiens)
- Construct: Purified GST fusion protein containing the Met kinase domain
- Sequence (P08581 1078-1345 limits assumed): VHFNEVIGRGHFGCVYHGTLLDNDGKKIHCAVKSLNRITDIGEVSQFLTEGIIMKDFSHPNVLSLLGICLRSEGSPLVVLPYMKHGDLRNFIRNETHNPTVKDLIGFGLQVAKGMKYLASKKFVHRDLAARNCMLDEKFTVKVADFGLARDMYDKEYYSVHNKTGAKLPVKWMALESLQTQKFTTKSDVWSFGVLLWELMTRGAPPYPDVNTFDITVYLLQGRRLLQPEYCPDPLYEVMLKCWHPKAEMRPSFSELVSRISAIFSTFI
- ASSAY_PROCEDURE: Met transphosphorylation assay (ELISA, poly(glu-tyr) substrate);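 further: Cell-free ELISA with plate-bound poly(Glu:Tyr 4:1) phosphorylated by GST-fused Met kinase domain plus ATP and Mn2+, phosphotyrosine detected by anti-phosphotyrosine antibody with HRP and ABTS read-out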
- Assay type: biochemical
- CONDITION_DESCRIPTION: read-out: Met IC50
ENDPOINT_NAME: pIC50
Scale for pIC50: -log10 of concentration given in mol/L; no unit attached.

> print(dat)
                                   compound  observed.value
1  CN1CCN(C(=O)c2cccc(-c3cnc(N)c(OCc4cccc(F)c4C(F)(F)F)n3)c2)CC1            6.64
2  Nc1ncc(-c2ccc(OCCN3CCOCC3)cc2)cc1OCc1c(F)ccc(F)c1Cl            6.68
3  Nc1ncc(-c2ccc(C(=O)N3CCC[C@@H]3CN3CCCC3)cc2)cc1OCc1c(F)cccc1F            5.92

Let us move to another entry and its pIC50.
## Input Fill in: pIC50 of CC(Oc1nc(-c2ccc(C(=O)N3C[C@@H](C)N[C@@H](C)C3)cc2)cnc1N)c1c(Cl)cccc1Cl (stereo partly shown) is ___
## Output 6.85

---

- TARGET_SYSTEM: HGFR (Homo sapiens, UniProt P08581)
- Construct: purchased Upstate 14-526
- Sequence (P08581 974-1390 limits assumed): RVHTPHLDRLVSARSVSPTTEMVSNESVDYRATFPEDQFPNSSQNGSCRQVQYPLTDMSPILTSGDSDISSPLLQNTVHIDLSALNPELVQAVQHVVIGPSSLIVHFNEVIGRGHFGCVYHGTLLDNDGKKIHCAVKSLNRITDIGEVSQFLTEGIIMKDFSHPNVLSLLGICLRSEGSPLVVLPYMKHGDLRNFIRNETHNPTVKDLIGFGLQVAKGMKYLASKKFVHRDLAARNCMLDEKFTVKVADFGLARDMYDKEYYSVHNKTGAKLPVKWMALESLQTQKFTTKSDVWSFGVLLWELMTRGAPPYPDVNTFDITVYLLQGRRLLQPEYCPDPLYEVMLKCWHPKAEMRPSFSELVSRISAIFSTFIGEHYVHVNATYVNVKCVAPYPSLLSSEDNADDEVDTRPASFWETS
- ASSAY_PROCEDURE: HGFR continuous-coupled spectrophotometric assay
- Assay type: biochemical
- CONDITION_DESCRIPTION: at 50 nM; Table 5, library procedure 40; read-out: % inhibition (percent c-MET inhibition)
The entries below are paired with their reported inhibition at 0.05 µM.
Please give a number only; it is taken to be in %.

Some compounds with known inhibition at 0.05 µM results, for comparison:
> print(dat)
                                   compound  observed.value
1  CCCCN(C)C(=O)c1ccc(-c2cnc(N)c(OC(C)c3c(Cl)ccc(F)c3Cl)c2)cc1 (stereo not shown)              63
2  C[C@H](Oc1cc(-c2ccc(C(=O)N[C@H](CO)c3ccccc3)cc2)cnc1N)c1c(Cl)ccc(F)c1Cl              69
3  COc1cc(CCNC(=O)c2ccc(-c3cnc(N)c(OC(C)c4c(Cl)ccc(F)c4Cl)c3)cc2)ccc1O (stereo not shown)              64

## Input Looking for the measured inhibition at 0.05 µM of CCN1CC(NC(=O)c2ccc(-c3cnc(N)c(OC(C)c4c(Cl)ccc(F)c4Cl)c3)cc2)CN1CC (stereo not shown) , can you help?
## Output 79

## Input CC(Oc1cc(-c2ccc(C(=O)N[C@@H]3CCN(Cc4ccccc4)C3)cc2)cnc1N)c1c(Cl)ccc(F)c1Cl (stereo partly shown) ?
## Output 67

## Input Follow-up entry: `C[C@H](Oc1cc(-c2ccc(C(=O)N[C@H]3CC[C@H](O)CC3)cc2)cnc1N)c1c(Cl)ccc(F)c1Cl`
## Output 73

## Input And the next one, CC(Oc1cc(-c2ccc(C(=O)N3CCC(N(C)C)CC3)cc2)cnc1N)c1c(Cl)ccc(F)c1Cl (stereo not shown) ?
## Output 92

---

# inhibition at 1 µM annotations
- TARGET_SYSTEM: HGFR (Homo sapiens)
- Construct: purchased Upstate 14-526
- ASSAY_PROCEDURE: HGFR continuous-coupled spectrophotometric assay
- Assay type: biochemical
- CONDITION_DESCRIPTION: at 1 μM; Table 8, library procedure 43; read-out: % Inhibition (percent c-MET inhibition)
For clarity, give the value followed by its unit.

> print(dat)
                                    compound        target.system  observed.value
 1  CC1CN(C(=O)c2ccc(-c3cnc(N)c(OCc4cc(F)c(F)cc4F)c3)cc2)CC(C)N1 (stereo not shown)  HGFR (Homo sapiens)             20%
 2  CC1CN(C(=O)c2ccc(-c3cnc(N)c(OCc4ccc(S(=O)(=O)c5ccc(F)cc5)cc4)c3)cc2)CC(C)N1 (stereo not shown)  HGFR (Homo sapiens)             13%
 3  Cc1cc(COc2cc(-c3ccc(C(=O)N4CC(C)NC(C)C4)cc3)cnc2N)nc(-c2ccc(C(F)(F)F)cn2)n1 (stereo not shown)  HGFR (Homo sapiens)              7%
 4  CC1CN(C(=O)c2ccc(-c3cnc(N)c(OCc4nc(-c5ccccn5)no4)c3)cc2)CC(C)N1 (stereo not shown)  HGFR (Homo sapiens)             15%
 5  CC1CN(C(=O)c2ccc(-c3cnc(N)c(OCc4nc(-c5ccccc5)nn4C)c3)cc2)CC(C)N1 (stereo not shown)  HGFR (Homo sapiens)             13%
 6  CC1CN(C(=O)c2ccc(-c3cnc(N)c(OCc4ccc(F)c(F)c4)c3)cc2)CC(C)N1 (stereo not shown)  HGFR (Homo sapiens)             14%
 7  CC1CN(C(=O)c2ccc(-c3cnc(N)c(OCc4cc(F)ccc4Br)c3)cc2)CC(C)N1 (stereo not shown)  HGFR (Homo sapiens)             21%
 8  Cc1ccc(F)c(COc2cc(-c3ccc(C(=O)N4CC(C)NC(C)C4)cc3)cnc2N)c1F (stereo not shown)  HGFR (Homo sapiens)             35%
 9  Cc1ccc(-c2nnc(COc3cc(-c4ccc(C(=O)N5CC(C)NC(C)C5)cc4)cnc3N)o2)cc1 (stereo not shown)  HGFR (Homo sapiens)             14%
10  CCOC(=O)CCNC(=O)c1cccc(COc2cc(-c3ccc(C(=O)N4CC(C)NC(C)C4)cc3)cnc2N)c1 (stereo not shown)  HGFR (Homo sapiens)             14%

## Input Sample CC1CN(C(=O)c2ccc(-c3cnc(N)c(OCc4cc(Cl)cc(Cl)c4)c3)cc2)CC(C)N1 (stereo not shown) — what was its inhibition at 1 µM?
## Output 26%

## Input And then CC1CN(C(=O)c2ccc(-c3cnc(N)c(OCc4cc(-c5c(Cl)cccc5Cl)no4)c3)cc2)CC(C)N1 (stereo not shown) , what is it?
## Output 16%

## Input Same again, this time with CC1CN(C(=O)c2ccc(-c3cnc(N)c(OCc4ccc(C(=O)c5ccccc5)cc4)c3)cc2)CC(C)N1 (stereo not shown)
## Output 35%

## Input Same again, this time with CC1CN(C(=O)c2ccc(-c3cnc(N)c(OCc4cccc(Br)c4)c3)cc2)CC(C)N1 (stereo not shown)
## Output 21%

## Input Now the same for CC1CN(C(=O)c2ccc(-c3cnc(N)c(OCc4cc(F)cc(C(F)(F)F)c4)c3)cc2)CC(C)N1 (stereo not shown)
## Output 19%

## Input Next: CC1CN(C(=O)c2ccc(-c3cnc(N)c(OCc4ccc(C(=O)NCc5cccnc5)cc4)c3)cc2)CC(C)N1 (stereo not shown)
## Output 8%

## Input And for CC1CN(C(=O)c2ccc(-c3cnc(N)c(OCc4ccc(-c5csnn5)cc4)c3)cc2)CC(C)N1 (stereo not shown) ?
## Output 17%

## Input And then CC1CN(C(=O)c2ccc(-c3cnc(N)c(OCc4cccc(-c5ccnc(Br)n5)c4)c3)cc2)CC(C)N1 (stereo not shown) , what is it?
## Output 19%

## Input // query: CC1CN(C(=O)c2ccc(-c3cnc(N)c(OCc4ccc(C(F)(F)F)cc4C(F)(F)F)c3)cc2)CC(C)N1 (stereo not shown)
## Output 22%
